Where do the numbers come from? From paper PMC11007443.

target: T1, biotinylated tau 2N4R (Homo sapiens, UniProt P10636-8, biotin (N-hydroxysuccimide-biotin conjugates, 5 M excess)); experiment: SPR; biotinylated tau 2N4R captured on a streptavidin chip (500 RU); VHHs as analytes, 0.125-2 uM, single-cycle kinetics; HBS-EP+ buffer; 1:1 Langmuir model; Kd calculated as koff/kon; conditions: both partners purified
T1 construct: tau protein, 2N4R isoform, NCBI NP_005901.2; Expressed from pET15b-tau; also called full-length tau; source: E. coli BL21 (DE3), purified (heating, cation exchange), then biotinylated
T1 sequence (P10636 other isoform, or with tags, fused parts or gaps): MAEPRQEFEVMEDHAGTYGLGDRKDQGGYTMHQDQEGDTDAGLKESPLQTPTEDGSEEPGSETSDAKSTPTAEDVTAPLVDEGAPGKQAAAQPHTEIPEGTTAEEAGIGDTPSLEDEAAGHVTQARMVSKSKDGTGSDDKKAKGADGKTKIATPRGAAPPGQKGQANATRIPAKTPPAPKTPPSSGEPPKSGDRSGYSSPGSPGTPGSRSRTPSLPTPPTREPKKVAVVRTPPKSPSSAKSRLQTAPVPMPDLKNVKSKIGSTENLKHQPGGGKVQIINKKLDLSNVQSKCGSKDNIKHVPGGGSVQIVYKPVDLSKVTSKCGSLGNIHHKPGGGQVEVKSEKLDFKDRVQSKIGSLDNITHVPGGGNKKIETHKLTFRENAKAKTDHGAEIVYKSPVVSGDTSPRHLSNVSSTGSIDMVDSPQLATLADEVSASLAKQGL
OBSERVATION TYPE: kon (M⁻¹ s⁻¹)
One number for each entry, in M⁻¹ s⁻¹.

Provide kon for all items below, preserving their order.
1. VHH Z70 mutant 9 (P101S + G115E) (VHH, as the chain of m1 (VHH Z70); also called Mut9; source: E. coli BL21 (DE3), periplasm, purified (IMAC, SEC)) VHH: EVQLQASGGVFVQSGGSLRLSCAASGATSTFDGMGWFRQAPGKEREFVSAISYEQGSYTYYADSVKGRFTISRDNSKNMVYLQMNSLRAEDTATYYCASAYEGDLYAFDSYGEQGTQVTVSS
2. VHH Z70 mutant 5 (T96S) (VHH, as the chain of m1 (VHH Z70); also called Mut5; source: E. coli BL21 (DE3), periplasm, purified (IMAC, SEC)) VHH: EVQLQASGGVFVQSGGSLRLSCAASGATSTFDGMGWFRQAPGKEREFVSAISYEQGSYTYYADSVKGRFTISRDNSKNMVYLQMNSLRAEDTASYYCAPAYEGDLYAFDSYGGQGTQVTVSS
3. VHH Z70 (VHH, VHH Z70; also in PDB 7QCQ; also called parent VHH; source: E. coli BL21 (DE3), periplasm, purified (IMAC, SEC)) VHH: EVQLQASGGVFVQSGGSLRLSCAASGATSTFDGMGWFRQAPGKEREFVSAISYEQGSYTYYADSVKGRFTISRDNSKNMVYLQMNSLRAEDTATYYCAPAYEGDLYAFDSYGGQGTQVTVSS

result:
40100
10900
18100

Provide kon for all items below, preserving their order.
1. VHH Z70 mutant 15 (R90G + P101S + G114E) (VHH, as the chain of m1 (VHH Z70); also called Mut15; source: E. coli BL21 (DE3), periplasm, purified (IMAC, SEC)) VHH: EVQLQASGGVFVQSGGSLRLSCAASGATSTFDGMGWFRQAPGKEREFVSAISYEQGSYTYYADSVKGRFTISRDNSKNMVYLQMNSLGAEDTATYYCASAYEGDLYAFDSYEGQGTQVTVSS
2. VHH Z70 mutant 14 (VHH, as the chain of m1 (VHH Z70); The text says only that G115E is combined with additional substitutions in mutant 14; also called Mut14; source: E. coli BL21 (DE3), periplasm, purified (IMAC, SEC)) VHH: EVQLQASGGVFVQSGGSLRLSCAASGATSIFDGMGWFRQAPGKEREFVSAISYGQGSYTYYADSVKGRFTISRDNSKNMVYLQMNSLRAEDTATYYCAPAYEGDLYAFDSYGEQGTQVTVSS
3. VHH Z70 mutant 3 (R47K) (VHH, as the chain of m1 (VHH Z70); also called Mut3; source: E. coli BL21 (DE3), periplasm, purified (IMAC, SEC)) VHH: EVQLQASGGVFVQSGGSLRLSCAASGATSTFDGMGWFRQAPGKEKEFVSAISYEQGSYTYYADSVKGRFTISRDNSKNMVYLQMNSLRAEDTATYYCAPAYEGDLYAFDSYGGQGTQVTVSS
4. VHH Z70 mutant 1 (G115E) (VHH, as the chain of m1 (VHH Z70); also called Mut1; source: E. coli BL21 (DE3), periplasm, purified (IMAC, SEC)) VHH: EVQLQASGGVFVQSGGSLRLSCAASGATSTFDGMGWFRQAPGKEREFVSAISYEQGSYTYYADSVKGRFTISRDNSKNMVYLQMNSLRAEDTATYYCAPAYEGDLYAFDSYGEQGTQVTVSS
5. VHH Z70 mutant 12 (S23C + G115E) (VHH, as the chain of m1 (VHH Z70); also called Mut12; source: E. coli BL21 (DE3), periplasm, purified (IMAC, SEC)) VHH: EVQLQASGGVFVQSGGSLRLCCAASGATSTFDGMGWFRQAPGKEREFVSAISYEQGSYTYYADSVKGRFTISRDNSKNMVYLQMNSLRAEDTATYYCAPAYEGDLYAFDSYGEQGTQVTVSS
6. VHH Z70 mutant 20 (R47K + G115E) (VHH, as the chain of m1 (VHH Z70); Generated by the authors, not found in the screen; also called Mut20; source: E. coli BL21 (DE3), periplasm, purified (IMAC, SEC)) VHH: EVQLQASGGVFVQSGGSLRLSCAASGATSTFDGMGWFRQAPGKEKEFVSAISYEQGSYTYYADSVKGRFTISRDNSKNMVYLQMNSLRAEDTATYYCAPAYEGDLYAFDSYGEQGTQVTVSS

result:
[65300, 18800, 26000, 107000, 33900, 21300]
